- tested-on: Voltage-gated potassium channel subunit beta-2 (Rattus norvegicus) (UniProt P62483)
- Sequence (P62483 whole entry, looked up): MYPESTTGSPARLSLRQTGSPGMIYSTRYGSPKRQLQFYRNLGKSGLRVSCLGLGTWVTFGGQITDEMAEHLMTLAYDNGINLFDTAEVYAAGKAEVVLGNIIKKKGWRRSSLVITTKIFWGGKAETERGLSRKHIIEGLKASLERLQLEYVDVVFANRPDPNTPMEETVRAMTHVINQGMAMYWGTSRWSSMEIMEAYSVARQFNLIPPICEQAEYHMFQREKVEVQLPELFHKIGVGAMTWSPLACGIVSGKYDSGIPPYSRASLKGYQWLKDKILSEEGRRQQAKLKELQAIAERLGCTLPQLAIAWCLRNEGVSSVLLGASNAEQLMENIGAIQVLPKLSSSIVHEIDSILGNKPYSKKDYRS
- test-details: enhancers of rat Kvbeta2 NADPH turnover – biochemical, NADPH fluorescence, primary screen (AID 623);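 also: fluorescence intensity change per second fitted from 20 to 320 s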
- test-settings: Recombinant KvBeta, NADPH fluorescence decrease slope, 10 min; at 10 µM; stronger effect = lower value
Field: NADPH fluorescence slope. Provide a value for each of the compounds that follow.
Numbers only.

CCCc1nnc2n1N=C(c1ccc(OC)c(OC)c1)CS2
-5.6e-05
COc1cc2c(cc1OC)C(c1cccnc1)CC(=O)N2 (stereo not drawn)
-2.9e-05
O=c1c2ccccc2nc2n1CCN2
7.7e-06
O=C(O)CCc1ccc(-c2ccc(F)cc2)n1CC(=O)O
-0.000309
CCOc1cc(NC(=O)c2ccco2)c(OCC)cc1NC(=O)CCc1ccc(OC)cc1
-6.7e-06

For each of the items listed, what is its NADPH fluorescence slope?
1. O=C(OCC#CCSc1nc2ccccc2s1)c1ccco1
2. Cc1c(C(=O)OC2CCC(C)CC2)[nH]c2c1C(=O)CCC2 (stereo not drawn)
3. O=C(CSc1nnc(CNC(=O)c2cccs2)o1)NC1CCCC1
4. C1CCc2nnc(-c3nnc4n3CCCCC4)n2CC1
5. O=C(COC(=O)c1cccc(S(=O)(=O)N2CCc3ccccc32)c1)NC1CCS(=O)(=O)C1 (stereo not drawn)

1. 2.6e-05
2. 1.4e-05
3. -5e-05
4. -2.9e-05
5. -7.3e-05

----------
- test-details: inhibitors of TNFa-induced NFkB p65 translocation, primary screen, imaging, HUVEC, MLSMR starter and 10KST1 sets (AID 438);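 also: compound added about 3h40 before a 20 min TNFalpha stimulation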
- test-settings: HUVEC TNFa-induced p65 nuclear translocation; measured here: nuclei count (cytotoxicity indicator), at 2.08 µM
Field: cell count. Provide a value for each of the compounds that follow.
Give bare numbers.

Cc1noc(C)c1CSc1nc2ccccc2s1
588
COc1ccccc1NC(=O)CSc1nnc(CC(=O)Nc2ccccc2)n1C
455

Consider the record given below.
Tell me its cell count given Cc1cc(O)c(-c2cc(C(=O)Nc3ccc(S(=O)(=O)N4CCOCC4)cc3)[nH]n2)cc1C as the entry.
499

----------
Field: inhibition. Provide a value for each of the compounds that follow.
- test-details: blockers of RIG-like receptor reporter activation – cell-based, Sendai virus stimulus, luciferase, 10K MLSCN set, TLR/RLR signaling modifier project, primary screen (AID 602276);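 also: firefly luciferase from ISG56 promoter only with Renilla not read in this screen; 0% = Sendai virus plus DMSO and 100% = medium plus DMSO without virus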
- test-settings: HEK293 RL24 IRF3 luciferase reporter, at 10 µM, stronger effect = higher value
One number for each entry, in %.

Sample answers from the record:
CCCOC(=O)c1[nH]c2c(c1C)C(=O)CC(c1ccc(OC)c(OC)c1)C2 (centres undefined)
-11.5
Cc1cccc(N2CCN(C(=O)C3CCCN(S(=O)(=O)c4c(C)noc4C)C3)CC2)c1C (centres undefined)
8.68
COc1ccc(C(=O)Nc2ccc(S(=O)(=O)NC(C)=O)cc2)cc1
10.3
O=C(NCc1nnc(SCC(=O)N2CCC(Cc3ccccc3)CC2)o1)c1ccccc1F
-4.5

For each of the items listed, what is its inhibition?
1. CN1CC=C2C(C#N)=C(N)C(C#N)(C#N)C(Cc3ccccc3)C2C1 (centres undefined)
2. Cc1ccc(-c2cc(C(=O)NCCN3CCOCC3)no2)cc1
3. CC1CCCCC1NC(=O)c1ccc(N2CCCC2=O)cc1 (centres undefined)

1. 4.84
2. -29.5
3. 5.47

For each of the items listed, what is its inhibition?
1. COc1ccc(CN(CC(=O)NCc2ccco2)C(=O)CCC(=O)Nc2nccs2)cc1
2. Cc1cccc(NC2SC(=O)N(c3ccccc3)C2=O)c1 (centres undefined)
3. Cc1cc(C(=O)NCCCN2CCOCC2)n(-c2ccccc2)n1
4. COc1ccccc1Oc1coc2c(CN3CCN(C)CC3)c(O)ccc2c1=O
5. CCOC(=O)c1[nH]c(=O)c2ccccc2c1O
6. Cc1cc(C)n(CC(=O)O)n1
7. CCOc1ccc(OCC)c(NC(=O)C2CCN(c3ncccn3)CC2)c1

11.3
-2.7
9.1
11.8
-11.9
12.8
8.17

# credit: PubChem BioAssay
